Consider the following molecules; for each one, report its pIC50.
- Assay Overview: Cytotoxicity against human vincristine-resistant […] cells after 72 hrs by fluorometric assay
- Type: functional, cell-based
# pIC50 = -log10(concentration in molar units)

## Task Quick one: pIC50 of O=C(/C=C/c1ccc(C(F)(F)F)cc1)c1cc(Cl)cc(Br)c1O ?
## Result 4.61

## Task Fill in: pIC50 of CCN(CC)c1ccc(/C=C/C(=O)c2cc(Cl)cc(Br)c2O)cc1 is ___
## Result 5.06

## Task Which measured pIC50 value corresponds to O=C(/C=C/C=C/c1cn(Cc2ccccc2)c2ccccc12)c1cc(Cl)cc(Br)c1O ?
## Result 4.27

## Task Consider the molecule O=C(/C=C(\O)c1cc(Cl)cc(Br)c1O)/C=C/c1ccccc1 and give its measured pIC50.
## Result 4.62

## Task Looking for the measured pIC50 of O=C(/C=C/c1ccccc1)c1cc(Cl)cc(Br)c1O , can you help?
## Result 4.62

## Task Quick check: pIC50 of O=C(/C=C/C=C/c1ccccc1)c1cc(Cl)cc(Br)c1O ?
## Result 4.50

## Task Requested read-out: pIC50. Entry: COc1ccc(/C=C/C(=O)c2cc(Cl)cc(Br)c2O)cc1
## Result 4.11

## Task So what does the record say about pIC50 for O=C(/C=C/c1cccs1)c1cc(Cl)cc(Br)c1O ?
## Result 4.49

## Task What value of pIC50 has been reported for the following molecule? CCN(CC)c1ccc(/C=C/C(=O)c2cc(Br)cc(Br)c2O)cc1
## Result 5.02

---

I'd appreciate it if you could supply pIC50 values for the items below.
- Test system: U-937/GTB
- Assay Overview: Cytotoxicity against human U937/GTB cells after 72 hrs by fluorometric assay
- Assay type: functional, cell-based
Schema: pIC50 number; meaning minus log10 of the concentration expressed in molar units.

## Task I have this compound here, O=C(/C=C/C=C/c1cn(Cc2ccccc2)c2ccccc12)c1cc(Cl)cc(Br)c1O , and I need its recorded pIC50.
## Result 4.31

## Task What value of pIC50 has been reported for the following compound? O=C(/C=C(\O)c1cc(Cl)cc(Br)c1O)/C=C/c1ccccc1
## Result 4.74

## Task Request the reported pIC50 associated with COc1ccc(/C=C/C(=O)c2cc(Cl)cc(Br)c2O)cc1
## Result 4.35

## Task Recorded pIC50 of O=C(/C=C/C=C/c1ccccc1)c1cc(Cl)cc(Br)c1O , please.
## Result 4.44

## Task // pIC50 lookup, key: CCN(CC)c1ccc(/C=C/C(=O)c2cc(Cl)cc(Br)c2O)cc1
## Result 5.03

## Task Entry O=C(/C=C/c1ccccc1)c1cc(Cl)cc(Br)c1O : reported pIC50 = ?
## Result 4.70

## Task pIC50 lookup needed for CCN(CC)c1ccc(/C=C/C(=O)c2cc(Br)cc(Br)c2O)cc1 , thanks.
## Result 5.09

## Task Request the reported pIC50 associated with O=C(/C=C/c1ccc(C(F)(F)F)cc1)c1cc(Cl)cc(Br)c1O
## Result 4.83

## Task pIC50 for O=C(/C=C/c1cccs1)c1cc(Cl)cc(Br)c1O ?
## Result 4.37

---

- Assay Overview: Cytotoxicity against human 8226/DOX40 cells after 72 hrs by fluorometric assay
- Type: functional, cell-based
Test Readout: IC50 (µM)
Answer with a number only, understood to be in µM.

## Task Query (compound): CCN(CC)c1ccc(/C=C/C(=O)c2cc(Br)cc(Br)c2O)cc1 ; field requested: IC50
## Result 7.7

## Task Which value of IC50 has been reported for CCN(CC)c1ccc(/C=C/C(=O)c2cc(Cl)cc(Br)c2O)cc1 in the records?
## Result 9.7

## Task Tell me the measured IC50 of COc1ccc(/C=C/C(=O)c2cc(Cl)cc(Br)c2O)cc1 , please.
## Result 16.9

## Task For O=C(/C=C/C=C/c1ccccc1)c1cc(Cl)cc(Br)c1O , what is its reported IC50?
## Result 14.2

## Task Sample O=C(/C=C/C=C/c1cn(Cc2ccccc2)c2ccccc12)c1cc(Cl)cc(Br)c1O — what was its IC50?
## Result 42.3

## Task Need IC50 of O=C(/C=C(\O)c1cc(Cl)cc(Br)c1O)/C=C/c1ccccc1 , thanks.
## Result 19.1

---

- Tested Target: Tubulin (Sus scrofa) (UniProt P02554+P02550)
- Sequence (P02550 whole entry, looked up): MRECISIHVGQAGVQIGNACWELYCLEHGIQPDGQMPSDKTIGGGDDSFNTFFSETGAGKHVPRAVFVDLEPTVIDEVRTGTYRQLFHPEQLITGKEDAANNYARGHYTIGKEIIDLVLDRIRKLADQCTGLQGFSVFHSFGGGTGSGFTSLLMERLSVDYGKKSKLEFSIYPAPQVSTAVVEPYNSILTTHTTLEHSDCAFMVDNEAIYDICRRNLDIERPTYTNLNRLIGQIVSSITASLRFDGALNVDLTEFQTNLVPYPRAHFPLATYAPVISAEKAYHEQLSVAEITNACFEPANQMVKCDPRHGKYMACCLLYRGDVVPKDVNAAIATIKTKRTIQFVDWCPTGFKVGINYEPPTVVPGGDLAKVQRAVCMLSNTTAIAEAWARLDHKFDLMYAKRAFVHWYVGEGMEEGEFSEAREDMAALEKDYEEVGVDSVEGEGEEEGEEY
- Sequence (P02554 whole entry, looked up): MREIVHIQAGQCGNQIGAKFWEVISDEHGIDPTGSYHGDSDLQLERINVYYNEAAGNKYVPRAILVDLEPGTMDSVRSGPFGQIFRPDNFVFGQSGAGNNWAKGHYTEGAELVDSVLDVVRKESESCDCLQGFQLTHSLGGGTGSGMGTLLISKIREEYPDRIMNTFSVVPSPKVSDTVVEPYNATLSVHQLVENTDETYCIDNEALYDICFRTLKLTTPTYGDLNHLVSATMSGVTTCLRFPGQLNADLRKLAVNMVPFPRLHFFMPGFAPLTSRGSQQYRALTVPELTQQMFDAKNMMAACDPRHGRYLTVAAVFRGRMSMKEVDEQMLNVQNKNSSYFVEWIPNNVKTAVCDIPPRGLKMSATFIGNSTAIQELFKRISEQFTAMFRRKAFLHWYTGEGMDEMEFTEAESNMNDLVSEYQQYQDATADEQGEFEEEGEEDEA
- Assay Overview: Inhibition of pig tubulin polymerization at 25 uM
- Format: protein assay
Calls of active or inactive are those of the source. The calls are words filed in the database; no cut-off is given here.
Test Readout: inhibition

Known inhibition results, listed for orientation:
[[record]]
sample_smiles = "O=C(/C=C(\\O)c1cc(Cl)cc(Br)c1O)/C=C/c1ccccc1"
endpoint_value = "inactive"

[[record]]
sample_smiles = "O=C(/C=C/C=C/c1ccccc1)c1cc(Cl)cc(Br)c1O"
endpoint_value = "Active"

[[record]]
sample_smiles = "O=C(/C=C/c1cccs1)c1cc(Cl)cc(Br)c1O"
endpoint_value = "Active"

[[record]]
sample_smiles = "O=C(/C=C/c1ccccc1)c1cc(Cl)cc(Br)c1O"
endpoint_value = "Active"

[[record]]
sample_smiles = "O=C(/C=C/c1ccc(C(F)(F)F)cc1)c1cc(Cl)cc(Br)c1O"
endpoint_value = "inactive"


## Task Query: inhibition; subject: CCN(CC)c1ccc(/C=C/C(=O)c2cc(Cl)cc(Br)c2O)cc1
## Result Active

## Task # query: inhibition of entry CCN(CC)c1ccc(/C=C/C(=O)c2cc(Br)cc(Br)c2O)cc1
## Result Active

## Task Give the measured inhibition of COc1ccc(/C=C/C(=O)c2cc(Cl)cc(Br)c2O)cc1 .
## Result inactive

---

- Test system: RPMI-8226
- Assay Overview: Cytotoxicity against human RPMI8226 cells after 72 hrs by fluorometric assay
- Assay type: functional, cell-based
- Condition Set: RPMI-8226, 72 h
Please respond with reported IC50 for every item in the list.
Record the value in µM, omitting the unit from your answer.

## Task Given the entry CCN(CC)c1ccc(/C=C/C(=O)c2cc(Br)cc(Br)c2O)cc1 , report its measured IC50.
## Result 26.1

## Task Look up IC50: O=C(/C=C/c1ccc(C(F)(F)F)cc1)c1cc(Cl)cc(Br)c1O
## Result 20.8

## Task Look at this molecule and give its reported IC50. COc1ccc(/C=C/C(=O)c2cc(Cl)cc(Br)c2O)cc1
## Result 80

## Task Bench note: what IC50 did O=C(/C=C/C=C/c1cn(Cc2ccccc2)c2ccccc12)c1cc(Cl)cc(Br)c1O show?
## Result 119

## Task Return reported IC50; argument: O=C(/C=C(\O)c1cc(Cl)cc(Br)c1O)/C=C/c1ccccc1
## Result 27.9

## Task Requested field: IC50. Item: CCN(CC)c1ccc(/C=C/C(=O)c2cc(Cl)cc(Br)c2O)cc1
## Result 29.4

## Task So what does the record say about IC50 for O=C(/C=C/C=C/c1ccccc1)c1cc(Cl)cc(Br)c1O ?
## Result 48.8

## Task For O=C(/C=C/c1cccs1)c1cc(Cl)cc(Br)c1O , what is its reported IC50?
## Result 79

## Task Looking for the measured IC50 of O=C(/C=C/c1ccccc1)c1cc(Cl)cc(Br)c1O , can you help?
## Result 18.7

---

- Assay Overview: Cytotoxicity against human 8226/DOX40 cells after 72 hrs by fluorometric assay
- Assay type: functional, cell-based
For each of the compounds below, state its IC50.
Number first, unit second.

## Task # get_value(readout='IC50', item= O=C(/C=C/c1ccccc1)c1cc(Cl)cc(Br)c1O )
## Result 12.4 µM

## Task # get_value(readout='IC50', item= O=C(/C=C/c1cccs1)c1cc(Cl)cc(Br)c1O )
## Result 26.5 µM

## Task Would you kindly share the measured IC50 for O=C(/C=C/c1ccc(C(F)(F)F)cc1)c1cc(Cl)cc(Br)c1O ?
## Result 22.5 µM
